Test system: PC-3
Assay: NCI tumour cell line growth inhibition, 48 h
Activity calls are given as the source filed them. Cut-off read from the data, not from the text of the source: active = GI50 up to about 1.1 µM and inactive = higher.
I would appreciate it if you answered using one of these outcomes: yes (1) (active), no (0) (inactive)

CC(Oc1ccccc1Cl)C(=O)NN1C(=O)CSC1c1ccc(Cl)cc1 (stereo not given) | no (0)
O=c1oc2ccccc2cc1-c1csc(Nc2ccc(F)cc2)n1 | no (0)
CN(Cc1cnc2nc(N)nc(N)c2n1)c1ccc(C(=O)N[C@@H](CCC(=O)O)C(=O)O)cc1 [METHOTREXATE] | yes (1)
NN/C(=N\S(=O)(=O)c1cccc2nsnc12)Nc1ccc(Cl)cc1 | no (0)
Cc1cc2c(cc1C)C(=O)C1(C2)Cc2cc3c(cc2C1=O)CCC3 (stereo not given) | no (0)
CCN(CC)C(=S)Oc1cc2oc(=O)cc(C)c2cc1Cl | no (0)
CCCCCCCCCCCCCCCCCC(=O)OCC(COC(=O)CCCN)OC(=O)CCCN (stereo not given) | no (0)
c1ccc2sc(C3(N4CCCCC4)CCCCCC3)cc2c1 | no (0)
COc1ccc(NC(=O)CC(=O)NNC(Sc2ccccc2)c2cc(/N=N/c3ccc(Br)cc3)ccc2O)cc1 (stereo not given) | no (0)

Turning to the following compound.
Q. Can you look up the reported call for "OC[C@H]1O[C@@H]2O[C@@](COCc3ccccc3)([C@H](OCc3ccccc3)[C@H]2O)[C@@H]1OCc1ccccc1" for me?
A. no (0)

###

Test system: SF-539
Experiment: NCI tumour cell line growth inhibition, 48 h
Activity calls are given as the source filed them. No stated cut-off is given here; in the data, active = GI50 up to about 1.1 µM and inactive = higher.
Write down the outcome that applies. Available outcomes: active, inactive

Example cases with answers are listed next.
N#C[BH2-][n+]1cn(C2CC(O)C(COP(=O)(O)OC3CC(n4cnc5c(N)ncnc54)OC3CO)O2)c2nc(N)[nH]c(=O)c21 (stereo not drawn) | inactive
CN(Cc1cnc2nc(N)nc(N)c2n1)c1ccc(C(=O)N[C@@H](CCC(=O)O)C(=O)O)cc1 [METHOTREXATE] | active

Q. Dear colleague, could you share the recorded outcome for CCCCCC(C)(C)CCC(=O)OC1OC(COC2OC(COC3OC(CO)C(O)C(O)C3O)C(O)C(O)C2O)C(O)C(O)C1O (stereo not drawn) when you have a moment?
A. inactive

Q. Called result for "Cc1cc(C)c2c(=N)c3ccccc3n(CCCCCCO)c2n1"
A. inactive

Q. Called result for "O=C1c2ccccc2C(=O)N1CCCC(=O)n1cc(F)c(=O)[nH]c1=O"
A. inactive

###

Target or system HCT-15: recorded GI50 listed per item.
Numbers only, in µM.

O=C(c1cccc(F)c1F)N1CCc2c([nH]c3ccccc23)C1c1ccc2c(c1)OCO2 (centres undefined) | 3.73
CC1=CC(=O)[C@@H](O)[C@]2(C)[C@H]3[C@@]4(O)OC[C@]35[C@H]([C@@H](C)[C@H]4O)[C@@H](OC(=O)C(C)(C)CO)C(=O)O[C@@H]5C[C@@H]12 | 0.292
CCCCc1ccc2[n+](c1)C(C(=O)OCC)=PC2 (centres undefined) | 39.6
Cc1ccc2nc(-c3ccc(N4C(=O)C(Cl)C4c4ccc(Cl)cc4)cc3)sc2c1 (centres undefined) | 27.3
O=C(CSCC(=O)N/N=C/c1cc(I)cc(I)c1O)N/N=C/c1cc(I)cc(I)c1O | 17.9
CCOC(=O)c1cccc(NC(=O)CCl)c1 | 2.75

Note: attention shifts to another entry.
Q. # get_value(readout='GI50', item= "c1ccc(Nc2nnc(CSc3nc(-c4ccccc4)c(-c4ccccc4)[nH]3)s2)cc1" )
A. 18.1
